# TARGET OR SYSTEM: JAK2 (Homo sapiens)
# Construct: purchased Carna Biosciences, Inc
# PROTOCOL DETAILS: JAK tyrosine kinase inhibitory activity in the presence of 1 mM ATP (ELISA), JAK2
# Format: biochemical
Counter-ions that a name gives are not always drawn.
ASSAY ENDPOINT: IC50 (nM)

Example results:
| COMPOUND | ASSAY ENDPOINT | NUMERIC READOUT |
| --- | --- | --- |
| CC[C@H](C)Nc1nc(-c2cnn3ccsc23)nc(C(=O)N2CCC(NC(=O)OC)CC2)c1OC | IC50 | 7200 |
| C[C@@H](Nc1cc(C(=O)N2CCC(NC(=O)OCC(F)F)CC2)nc(-c2cnn3ccsc23)n1)C(C)(C)C [Example 97, hydrochloride] | IC50 | 1300 |
| CC(C)[C@H](C)Nc1cc(C(=O)N2CCC(NC(=O)C3CC3)CC2)nc(-c2cnn3ccsc23)n1 | IC50 | 1400 |
| CCC(CC)Nc1cc(C(=O)N2CCC(O)CC2)nc(-c2cnn3ccsc23)n1 [Example 81, hydrochloride] | IC50 | 2200 |

[P] COC(=O)NC1CCN(C(=O)c2nc(-c3cnn4ccsc34)nc(N[C@@H](C)C3CC3)c2OC)CC1
[Q] CC(C)OC(=O)NC1CCN(C(=O)c2cc(NC3(C)COC3)nc(-c3cnn4ccsc34)n2)CC1
Query: // pick min by IC50: P , Q Field: selected label. Fill in the label of the entry you choose.
Response: P

----------
# TARGET OR SYSTEM: JAK2 (Homo sapiens, UniProt O60674)
# Construct: purchased Carna Biosciences, Inc
# Sequence (O60674 whole entry): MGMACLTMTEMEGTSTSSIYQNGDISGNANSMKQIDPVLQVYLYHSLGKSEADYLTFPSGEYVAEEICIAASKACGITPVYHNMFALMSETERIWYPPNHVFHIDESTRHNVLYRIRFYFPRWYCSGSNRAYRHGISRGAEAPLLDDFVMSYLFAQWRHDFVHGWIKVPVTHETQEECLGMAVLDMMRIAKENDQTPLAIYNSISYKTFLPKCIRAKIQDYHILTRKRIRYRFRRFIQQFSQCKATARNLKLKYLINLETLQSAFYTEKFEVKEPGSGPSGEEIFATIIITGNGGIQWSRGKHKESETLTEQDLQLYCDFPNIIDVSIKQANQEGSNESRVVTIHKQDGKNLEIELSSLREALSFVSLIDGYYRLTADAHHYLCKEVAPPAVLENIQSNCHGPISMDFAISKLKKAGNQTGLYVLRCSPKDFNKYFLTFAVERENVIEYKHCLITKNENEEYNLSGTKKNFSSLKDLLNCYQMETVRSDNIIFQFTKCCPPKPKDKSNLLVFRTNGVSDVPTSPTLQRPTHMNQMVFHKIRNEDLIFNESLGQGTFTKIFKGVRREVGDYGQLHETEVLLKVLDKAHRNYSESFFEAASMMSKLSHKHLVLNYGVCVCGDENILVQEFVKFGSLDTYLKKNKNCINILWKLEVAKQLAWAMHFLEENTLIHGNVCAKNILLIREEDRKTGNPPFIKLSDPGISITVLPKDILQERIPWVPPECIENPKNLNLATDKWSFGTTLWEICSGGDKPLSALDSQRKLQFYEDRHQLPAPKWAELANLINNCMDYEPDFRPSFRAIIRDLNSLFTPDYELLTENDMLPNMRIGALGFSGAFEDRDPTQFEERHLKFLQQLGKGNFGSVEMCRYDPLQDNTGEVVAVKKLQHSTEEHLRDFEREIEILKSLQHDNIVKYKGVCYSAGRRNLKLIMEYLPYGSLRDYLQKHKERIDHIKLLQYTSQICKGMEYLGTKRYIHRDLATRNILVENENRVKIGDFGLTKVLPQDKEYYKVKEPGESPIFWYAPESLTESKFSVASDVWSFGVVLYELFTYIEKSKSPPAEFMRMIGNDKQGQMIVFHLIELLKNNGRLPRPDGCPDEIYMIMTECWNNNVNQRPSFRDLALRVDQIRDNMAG
# PROTOCOL DETAILS: JAK tyrosine kinase inhibitory activity in the presence of 1 mM ATP (ELISA), JAK2
# Type: biochemical
Counter-ions that a name gives are not always drawn.
ASSAY ENDPOINT: IC50 (nM)

Example results:
| COMPOUND | IC50 / nM |
| --- | --- |
| COCC(C)(C)Nc1cc(C(=O)N2CCC(NC(=O)C3CC3)CC2)nc(-c2cnn3ccsc23)n1 [Example 38] | 1200 |
| COC(=O)NC1CCN(C(=O)c2cc(NCC(C)(C)C)nc(-c3cnn4ccsc34)n2)CC1 [Example 87, hydrochloride] | 1600 |
| COC(=O)NC1CCN(C(=O)c2cc(N[C@@H](C)C(C)(C)C)nc(-c3cnn4ccsc34)n2)CC1 [Example 22] | 800 |

[A] COCCOC(=O)NC1CCN(C(=O)c2cc(N[C@H](C)C3CC3)nc(-c3cnn4ccsc34)n2)CC1 [Example 88]
[B] C[C@@H](COC(F)F)Nc1cc(C(=O)N2CCC(NC(=O)C3CC3)CC2)nc(-c2cnn3ccsc23)n1 [Example 17]
[C] CC(=O)NC1CCN(C(=O)c2nc(-c3cnn4ccsc34)nc(N[C@@H](C)C(C)(C)C)c2C)CC1 [Example 6]
[D] C[C@H](Nc1cc(C(=O)N2CCC(NS(C)(=O)=O)CC2)nc(-c2cnn3ccsc23)n1)C1CC1 [Example 66]
Query: Rank the items in ascending order with respect to IC50. When ranking, write the labels in the order the request describes.
Response: D, A, C, B
(D: 620 nM, A: 1000 nM, C: 1800 nM, B: 5100 nM)

Data provenance is patent US9999622B2.
